B1: library; numbered along this chain (parent)
chain: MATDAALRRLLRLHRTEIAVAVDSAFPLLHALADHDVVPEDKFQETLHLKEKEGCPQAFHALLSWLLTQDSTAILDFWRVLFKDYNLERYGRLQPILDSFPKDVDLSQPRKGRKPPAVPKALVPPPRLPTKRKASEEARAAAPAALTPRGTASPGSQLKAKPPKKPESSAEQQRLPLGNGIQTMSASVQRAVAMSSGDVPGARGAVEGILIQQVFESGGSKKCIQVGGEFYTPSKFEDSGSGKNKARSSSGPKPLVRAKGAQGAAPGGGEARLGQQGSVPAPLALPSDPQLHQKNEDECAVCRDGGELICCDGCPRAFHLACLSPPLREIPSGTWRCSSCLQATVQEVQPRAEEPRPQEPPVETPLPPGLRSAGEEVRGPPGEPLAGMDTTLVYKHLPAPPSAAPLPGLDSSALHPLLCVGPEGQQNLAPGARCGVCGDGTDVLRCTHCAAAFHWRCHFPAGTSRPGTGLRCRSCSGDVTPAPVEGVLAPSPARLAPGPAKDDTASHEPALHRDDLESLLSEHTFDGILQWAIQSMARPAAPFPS

Variants of: B1
protocol details: AIRE transcriptional activation functional score (insulin promoter-GFP; nonsense median 0, synonymous median 1) (normalised score); higher = higher AIRE activity (more reporter activation)
test context: with insulin promoter-GFP reporter in HEK293
reported endpoint: AIRE transcriptional activation functional score
Give the figure only, with no unit attached.

Query string: I am curious: what AIRE transcriptional activation functional score value has been reported for "L417F" ?
Result string: 1.3

Query string: # input variant: "V345F" ; wanted: its AIRE transcriptional activation functional score
Result string: 1.36

Query string: What AIRE transcriptional activation functional score value was documented for this variant, "E237Y" ?
Result string: 0.617

Query string: # query: AIRE transcriptional activation functional score of entry "H458R"
Result string: 0.586

Query string: Look up AIRE transcriptional activation functional score: "K243S"
Result string: 1

Query string: Data request, read-out AIRE transcriptional activation functional score, for "R247N"
Result string: 0.919

Query string: # get_value(readout='AIRE transcriptional activation functional score', item= "T232E" )
Result string: 1.05

Query string: Could you share which AIRE transcriptional activation functional score value was measured for "L47R" ?
Result string: -0.624

Query string: Which AIRE transcriptional activation functional score is reported for this variant? "F100H"
Result string: 0.644

Query string: Can you share its AIRE transcriptional activation functional score? I mean this variant: "F26C"
Result string: -0.0618

Query string: I am curious: what AIRE transcriptional activation functional score value has been reported for "A6P" ?
Result string: 0.153

Query string: Name the reported AIRE transcriptional activation functional score value associated with the variant "I309V"
Result string: 1.14

Query string: Which AIRE transcriptional activation functional score is listed for "V420Y" ?
Result string: 0.639

Query string: Field request: AIRE transcriptional activation functional score | item: "Q425H"
Result string: 1.3

Query string: Need AIRE transcriptional activation functional score, item "S474M"
Result string: 0.192

Query string: Suppose we examine the variant "I224E" ; what AIRE transcriptional activation functional score value has been reported?
Result string: 1

Query string: Consider the variant "R149M" and give its measured AIRE transcriptional activation functional score.
Result string: 0.41

Query string: // lookup AIRE transcriptional activation functional score for "E363S"
Result string: 1.04

Query string: What value of AIRE transcriptional activation functional score has been recorded for this entry: "E136L"
Result string: 0.669

Query string: So what's the measured AIRE transcriptional activation functional score for this one? "Q212L"
Result string: -0.00712

Query string: // query AIRE transcriptional activation functional score value for entry "S185F"
Result string: 0.468

Query string: Endpoint output: AIRE transcriptional activation functional score of "V22N" . Value?
Result string: -0.13

Query string: What does the data say about its AIRE transcriptional activation functional score? Entry: "R110M"
Result string: 0.295

Query string: I have this variant here, "S71L" , and I need its recorded AIRE transcriptional activation functional score.
Result string: -0.359

Query string: What value of AIRE transcriptional activation functional score has been recorded for this entry: "G477P"
Result string: 1.46

Query string: Bench note: what AIRE transcriptional activation functional score did "F43Y" show?
Result string: 0.108

Query string: I would be grateful if you could share the reported AIRE transcriptional activation functional score for "P490R" .
Result string: 1.07

Query string: Fill in: AIRE transcriptional activation functional score of "Q358M" is ___
Result string: 1.12

Query string: Form field: reported AIRE transcriptional activation functional score of "L29V"
Result string: 0.342

Query string: I'd like to know its AIRE transcriptional activation functional score. The variant in question is "M194L"
Result string: 0.99

Query string: Please report the recorded AIRE transcriptional activation functional score for "T364H" .
Result string: 1.07

Query string: Returns the measured AIRE transcriptional activation functional score for the input variant. Input: "R471A"
Result string: 0.351

Query string: Look at this variant and give its reported AIRE transcriptional activation functional score. "T334C"
Result string: 0.7

Query string: Query (variant): "I181C" ; field requested: AIRE transcriptional activation functional score
Result string: 0.211

Query string: Given "A482F" , state its recorded AIRE transcriptional activation functional score.
Result string: -0.132

Query string: AIRE transcriptional activation functional score for "Q44E" ?
Result string: -0.441

Query string: Record request: AIRE transcriptional activation functional score value, item "Q358I"
Result string: 1.1

Query string: Given "V104K" , state its recorded AIRE transcriptional activation functional score.
Result string: -0.552

Query string: # get_value(readout='AIRE transcriptional activation functional score', item= "P254A" )
Result string: 0.885

Query string: Looking for the measured AIRE transcriptional activation functional score of "A205L" , can you help?
Result string: 0.428

Query string: I have this variant here, "F100C" , and I need its recorded AIRE transcriptional activation functional score.
Result string: 0.447

Query string: Record request: AIRE transcriptional activation functional score value, item "L62D"
Result string: -0.0278

Query string: Quick one: AIRE transcriptional activation functional score for "L63E" ?
Result string: -1.39

Query string: Query (variant): "F459K" ; field requested: AIRE transcriptional activation functional score
Result string: 0.78

Query string: Param item = "P154R" ; retrieve measured AIRE transcriptional activation functional score.
Result string: 0.579

Query string: Name the reported AIRE transcriptional activation functional score value associated with the variant "Q530I"
Result string: 0.183

Query string: Record request: AIRE transcriptional activation functional score value, item "L75V"
Result string: 1.31

Query string: Which AIRE transcriptional activation functional score is listed for "L444Y" ?
Result string: 0.814

Query string: Give its AIRE transcriptional activation functional score value. Item: "G382E"
Result string: 1.19

Query string: What does the record list as AIRE transcriptional activation functional score for "F100M" ?
Result string: -0.57

Query string: Would you kindly share the measured AIRE transcriptional activation functional score for "P126W" ?
Result string: 0.0843

Query string: Which measured AIRE transcriptional activation functional score value corresponds to "L255E" ?
Result string: 0.58

Query string: Any idea what its AIRE transcriptional activation functional score is? The variant is "V22F"
Result string: -0.0603

Query string: # query: AIRE transcriptional activation functional score of entry "G435E"
Result string: 0.463

Query string: May I ask what AIRE transcriptional activation functional score has been recorded for "A429N" ?
Result string: 1.09

Query string: Any idea what its AIRE transcriptional activation functional score is? The variant is "A500T"
Result string: 1.12

Query string: I would be grateful if you could share the reported AIRE transcriptional activation functional score for "K259Q" .
Result string: 0.922

Query string: Which AIRE transcriptional activation functional score value belongs to "Q69K" ?
Result string: 0.102

Query string: Would you kindly share the measured AIRE transcriptional activation functional score for "A261M" ?
Result string: 1.19

Query string: Would you mind telling me what AIRE transcriptional activation functional score value was observed for "H60E" ?
Result string: -0.56

Query string: Which AIRE transcriptional activation functional score value is on record for "L93N" ?
Result string: 0.43

Query string: Quick one: AIRE transcriptional activation functional score of "G305P" ?
Result string: 0.937

Query string: Fill in the blank: the reported AIRE transcriptional activation functional score of "N295F" is ____.
Result string: 0.892

Query string: What does the data say about its AIRE transcriptional activation functional score? Entry: "Q57L"
Result string: 1.41

Query string: # lookup: AIRE transcriptional activation functional score of "E296W"
Result string: 1.44

Query string: AIRE transcriptional activation functional score for "T463R" ?
Result string: 0.998

Query string: What value of AIRE transcriptional activation functional score has been recorded for this entry: "P163T"
Result string: 0.923

Query string: Look up AIRE transcriptional activation functional score for this variant: "E307N"
Result string: 1.41

Query string: What value of AIRE transcriptional activation functional score has been reported for the following variant? "L32A"
Result string: -0.972

Query string: What value of AIRE transcriptional activation functional score has been recorded for this entry: "R15G"
Result string: -0.349

Query string: Would you mind telling me what AIRE transcriptional activation functional score value was observed for "R336E" ?
Result string: 0.646

Query string: Fill in the blank: the reported AIRE transcriptional activation functional score of "N86L" is ____.
Result string: 0.306

Query string: I'd like to know its AIRE transcriptional activation functional score. The variant in question is "L210P"
Result string: 0.65

Query string: Entry under review: "P381Q" . Reported AIRE transcriptional activation functional score?
Result string: 1.35

Query string: Looking for the measured AIRE transcriptional activation functional score of "F525D" , can you help?
Result string: 0.0868

Query string: Sample "A193S" — what was its AIRE transcriptional activation functional score?
Result string: 0.899

Query string: Sample "K243H" — what was its AIRE transcriptional activation functional score?
Result string: 1.02

Query string: Consider the variant shown here: "P368E" What is its recorded AIRE transcriptional activation functional score?
Result string: 0.965

Query string: I would be grateful if you could share the reported AIRE transcriptional activation functional score for "G435K" .
Result string: 1.2

Query string: Using the record for "P398R" , report its AIRE transcriptional activation functional score.
Result string: 0.958

Query string: Return reported AIRE transcriptional activation functional score; argument: "T232N"
Result string: 0.834

Query string: What value of AIRE transcriptional activation functional score has been reported for the following variant? "P331N"
Result string: 1.23

Query string: # input variant: "L28N" ; wanted: its AIRE transcriptional activation functional score
Result string: -1.05

Query string: Entry "E270N" : reported AIRE transcriptional activation functional score = ?
Result string: 1.01

Query string: Name the reported AIRE transcriptional activation functional score value associated with the variant "G462K"
Result string: -0.837

Query string: Which AIRE transcriptional activation functional score is listed for "V256M" ?
Result string: 0.911

Query string: Looking for the measured AIRE transcriptional activation functional score of "H292M" , can you help?
Result string: 1.7

Query string: Record request: AIRE transcriptional activation functional score value, item "P125C"
Result string: 0.918

Query string: Any idea what its AIRE transcriptional activation functional score is? The variant is "I96Y"
Result string: 0.139

Query string: // query AIRE transcriptional activation functional score value for entry "A160K"
Result string: -0.392

Query string: Look at this variant and give its reported AIRE transcriptional activation functional score. "L66M"
Result string: 0.0543
